# Tested on: E. coli ATCC25922
# assayInfo: MIC determination, broth microdilution (CLSI)
# Type: cell-based
# protocolConditions: Escherichia coli, ATCC25922, strain 1
measureName: MIC (µg/mL)
Record the value in µg/mL, omitting the unit from your answer.

In the examples that follow, each entry is paired with its recorded MIC.
inputSmiles	measureName	testResult
C[C@H]1[C@H](NC(=O)/C(=N\OCCOc2ccc(C(=N)NCCO)cc2)c2csc(N)n2)C(=O)N1S(=O)(=O)O	MIC	0.125
CC1(C)[C@H](NC(=O)/C(=N\OCCOc2ccc(C(=N)NCc3ccccn3)cc2)c2csc(N)n2)C(=O)N1OS(=O)(=O)O	MIC	0.5
C[C@H]1[C@H](NC(=O)/C(=N\OCc2cc(C(=N)N)cs2)c2csc(N)n2)C(=O)N1S(=O)(=O)O	MIC	1

response.value for CN1CC[C@H](NC(=N)c2ccc(OC[C@H](O/N=C(\C(=O)N[C@@H]3C(=O)N(OS(=O)(=O)O)C3(C)C)c3csc(N)n3)C(=O)O)cc2)C1 (field: MIC) = 0.125

Value of MIC reported for the compound C[C@H]1[C@H](NC(=O)/C(=N\OCCOc2cccc(C(=N)N)c2)c2csc(N)n2)C(=O)N1S(=O)(=O)O is 0.5

----------
MIC for assorted compounds
# Tested on: S. pneumoniae 113
# assayInfo: MIC determination, broth microdilution (CLSI)
# Format: cell-based
# protocolConditions: Streptococcus pneumoniae, 113, strain 13; broth microdilution; read-out: MIC strain 13 (S. pneumoniae 113)
Report only the number, with the unit µg/mL understood.

Worked cases, MIC given:
compound	unitAbbreviation	MIC
CC1(C)[C@H](NC(=O)/C(=N\O[C@@H](COc2ccc(C(=N)NCc3ncc[nH]3)cc2)C(=O)O)c2csc(N)n2)C(=O)N1OS(=O)(=O)O	µg/mL	1
CC1(C)[C@H](NC(=O)/C(=N\OC(COc2ccc(C(=N)N)cc2)CC(=O)O)c2csc(N)n2)C(=O)N1OS(=O)(=O)O (mixture of isomers)	µg/mL	1
C[C@H]1[C@H](NC(=O)/C(=N\OCCOc2nnc(C(=N)N)s2)c2csc(N)n2)C(=O)N1S(=O)(=O)O	µg/mL	1

Notebook: CN1CC(NC(=N)c2ccc(OC[C@H](O/N=C(\C(=O)N[C@@H]3C(=O)N(OS(=O)(=O)O)C3(C)C)c3csc(N)n3)C(=O)O)cc2)C1 , MIC read as 0.5

Record summary for CC1(C)[C@H](NC(=O)/C(=N\O[C@@H](COc2ccc(C(=N)NC3CNCC3N)cc2)C(=O)O)c2csc(N)n2)C(=O)N1OS(=O)(=O)O (stereo partly drawn) : reported MIC = 0.5

Consider C[C@H]1[C@H](NC(=O)/C(=N\OCCOc2ccc(C(=N)NCCOC=O)cc2)c2csc(N)n2)C(=O)N1S(=O)(=O)O . Its measured MIC is 0.5

Just so you know, measured MIC for C[C@H]1[C@H](NC(=O)/C(=N\OCc2ccc(C(=N)N)cc2)c2csc(N)n2)C(=O)N1S(=O)(=O)O came out at 0.125

Lab note: measured MIC of C[C@H]1[C@H](NC(=O)/C(=N\OCCOc2ccc(NC(=N)N)cc2)c2csc(N)n2)C(=O)N1S(=O)(=O)O was 1

Looking up CN1CC[C@H](NC(=N)c2ccc(OC[C@H](O/N=C(\C(=O)N[C@@H]3C(=O)N(OS(=O)(=O)O)C3(C)C)c3csc(N)n3)C(=O)O)cc2)C1 , I see its MIC listed as 0.5

MIC reading for CNCCNC(=N)c1ccc(OC[C@H](O/N=C(\C(=O)N[C@@H]2C(=O)N(OS(=O)(=O)O)C2(C)C)c2csc(N)n2)C(=O)O)cc1 : 0.5

// C[C@H]1[C@H](NC(=O)/C(=N\OCCOc2ccc(C(=N)N)cc2COC=O)c2csc(N)n2)C(=O)N1S(=O)(=O)O : MIC value = 1

----------
# System: P. aeruginosa 2297-con (AmpC derepressed)
# assayInfo: MIC determination, broth microdilution (CLSI)
# Assay type: cell-based
# protocolConditions: Pseudomonas aeruginosa, read-out: strain 8 MIC, strain 8
MIC under 8 µg/mL gets True, anything at or over 8 µg/mL gets False.

Some solved cases for reference:
compound	experimentalSystem	assignedClass
CC1(C)[C@H](NC(=O)/C(=N\O[C@@H](COc2ccc(C(=N)NC3CCNCC3)cc2)C(=O)O)c2csc(N)n2)C(=O)N1OS(=O)(=O)O	P. aeruginosa 2297-con (AmpC derepressed)	True
CC1(C)[C@H](NC(=O)/C(=N\O[C@@H](COc2ccc(C(=N)NC3CNCC3N)cc2)C(=O)O)c2csc(N)n2)C(=O)N1OS(=O)(=O)O (stereo partly shown)	P. aeruginosa 2297-con (AmpC derepressed)	True
C[C@H]1[C@H](NC(=O)/C(=N\OCCOc2ccc(C(=N)N)cc2CO)c2csc(N)n2)C(=O)N1S(=O)(=O)O	P. aeruginosa 2297-con (AmpC derepressed)	False

Would you kindly look at the next entry?
Is MIC strictly under 8 µg/mL for the entry CC1(C)[C@H](NC(=O)/C(=N\O[C@@H](COc2ccc(C(=N)N[C@H]3CCNC3)cc2)C(=O)O)c2csc(N)n2)C(=O)N1OS(=O)(=O)O ?
True

----------
Measured MIC, listed per entry.
# Tested on: B. fragilis 6688
# assayInfo: MIC determination, broth microdilution (CLSI)
# Format: cell-based
# protocolConditions: Bacteroides fragilis, 6688, strain 15; broth microdilution; read-out: MIC strain 15 (B. fragilis 6688)

compound	MIC
CC(C)(N)CNC(=N)c1ccc(OC[C@H](O/N=C(\C(=O)N[C@@H]2C(=O)N(OS(=O)(=O)O)C2(C)C)c2csc(N)n2)C(=O)O)cc1 [Example 94]	8 µg/mL

Field MIC (entry CC1(C)[C@H](NC(=O)/C(=N\OCC(Oc2ccc(C(=N)N)cc2)C(=O)O)c2csc(N)n2)C(=O)N1OS(=O)(=O)O (single isomer, unassigned) [Example 87A] ) reads 32 µg/mL

Value of measured MIC for the entry CC1(C)[C@H](NC(=O)/C(=N\OCCOc2ccc(C(=N)NC(CN)CN)cc2)c2csc(N)n2)C(=O)N1OS(=O)(=O)O [Example 84] : 4 µg/mL

Kindly note the recorded MIC for CN(C)C(=O)[C@@H]1C[C@H](NC(=N)c2ccc(OCCO/N=C(\C(=O)N[C@@H]3C(=O)N(OS(=O)(=O)O)C3(C)C)c3csc(N)n3)cc2)CN1 [Example 42] , which is 8 µg/mL

Form field MIC, entry CC1(C)[C@H](NC(=O)/C(=N\O[C@@H](COc2ccc(C(=N)NC3CC3N)cc2)C(=O)O)c2csc(N)n2)C(=O)N1OS(=O)(=O)O (single isomer, unassigned) [Example 100A] : 8 µg/mL

----------
# Tested on: E. coli ATCC25922
# assayInfo: MIC determination, broth microdilution (CLSI)
# Assay type: cell-based
# protocolConditions: Escherichia coli, ATCC25922, strain 1
Mark Condition met only when MIC stays strictly below 0.2 µg/mL. Values equal to the cut-off are Condition not met.

Worked cases, answers included:
compound	assignedClass
CN(C)CCNC(=N)c1ccc(OCCO/N=C(\C(=O)N[C@@H]2C(=O)N(OS(=O)(=O)O)C2(C)C)c2csc(N)n2)cc1	Condition met
C[C@H]1[C@H](NC(=O)/C(=N\OCCOc2ccc(C(=N)NO)cc2)c2csc(N)n2)C(=O)N1S(=O)(=O)O	Condition not met
CC1(C)[C@H](NC(=O)/C(=N\OCCOc2cnc(C(=N)N)c(O)c2)c2csc(N)n2)C(=O)N1OS(=O)(=O)O	Condition not met
C[C@H]1[C@H](NC(=O)/C(=N\OCCOc2ccc(C(=N)N)cc2Cl)c2csc(N)n2)C(=O)N1S(=O)(=O)O	Condition not met

MIC under 0.2 µg/mL? Item: C[C@H]1[C@H](NC(=O)/C(=N\OCCOc2ccc(C(=N)N)cn2)c2csc(N)n2)C(=O)N1S(=O)(=O)O
Condition not met

Problem: For the compound CC1(C)[C@H](NC(=O)/C(=N\OCCOc2ccc(C(=N)N[C@H](CN)CO)cc2)c2csc(N)n2)C(=O)N1OS(=O)(=O)O , is MIC under 0.2 µg/mL?
Condition not met

Quick check: does C[C@@H]1[C@H](NC(=O)/C(=N\OCCOc2ccc(C(=N)N)cc2)c2csc(N)n2)C(=O)N1OS(=O)(=O)O have MIC under 0.2 µg/mL?
Condition not met

Is 0.2 µg/mL strictly greater than the compound's reported MIC? compound: CN1CC(NC(=N)c2ccc(OC[C@H](O/N=C(\C(=O)N[C@@H]3C(=O)N(OS(=O)(=O)O)C3(C)C)c3csc(N)n3)C(=O)O)cc2)C1
Condition met

Does this compound meet the criterion MIC < 0.2 µg/mL? C[C@@H]1[C@H](NC(=O)/C(=N\OCCCOc2ccc(C(=N)N)cc2)c2csc(N)n2)C(=O)N1S(=O)(=O)O
Condition not met
